molecular target: HsRAD51(H294V) (Homo sapiens, UniProt Q06609 1-339, H294V); experiment: SPR; no nucleotide; SPR (Biacore 3000): 20 mM HEPES pH 7.5, 10% glycerol, 1 mM DTT, 1 mM MgCl2, 0.005% P-20, 2.5 mM indicated nucleotide, 150 mM KCl when indicated (text: salt similar to strand exchange), 25 C, 100 nM-1.6 uM protein; settings: protein: recombinant; chain copies: 10; label: 5' biotin; single strand
Sequence (Q06609 whole entry H294V): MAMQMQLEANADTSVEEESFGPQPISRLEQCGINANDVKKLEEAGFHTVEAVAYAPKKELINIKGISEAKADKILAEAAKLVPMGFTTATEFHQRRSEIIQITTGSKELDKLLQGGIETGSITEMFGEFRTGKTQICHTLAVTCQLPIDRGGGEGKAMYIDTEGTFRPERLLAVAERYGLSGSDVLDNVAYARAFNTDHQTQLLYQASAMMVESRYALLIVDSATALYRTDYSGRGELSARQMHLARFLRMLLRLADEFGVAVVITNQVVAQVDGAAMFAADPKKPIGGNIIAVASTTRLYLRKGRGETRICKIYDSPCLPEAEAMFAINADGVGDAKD
MEASUREMENT NAME: Kd (nM)

{"BINDER": "TTTTTTTTTTTTTTTTTTTTTTTTTTTTTTTTTTTTTTTTTTTTTTTTTT (ssDNA) [dT50]", "MEASUREMENT NAME": "Kd", "UNITS": "nM", "EXPERIMENTAL RESULT": 28}

Source listed as paper PMC3155514.
